test: Body weight and food intake in C57BL/6 mice, fusion protein conjugates, 30 nmol/kg daily 10 days; format: in vivo
TEST_READOUT: Body weight reduction at 30 nmol/kg (% reduction compared to vehicle)(Day11) (%)

{"MOLECULE": "MLC084: fusion polypeptide SEQ ID NO: 376 conjugated with Moiety C at 39C of Linker (conjugate, Moiety C conjugated at linker Cys39) HGEGTFTSDVSSYLEEQAAKEFIAWLVRGGGGQEPGAQPGQEPGAQPGQEPGAQPGQEPGAQPGQEPGQCPGQEPGAQPGAQPGAQPGAQPGAQPGAQPGAQPGAQPGAQPARQGDHCPLGPGRCCRLHTVRASLEDLGWADWVLSPREVQVTMCIGACPSQFRAANLHAQIKTSLHRLKPDTVPAPCCVPASYNPMVLIQKTDTGVSLQTYDDLLAKDCHCI", "RESULT_NUMBER": 20.7}

Attribution: patent US11453711B2
